# TEST_SYSTEM: Retinoic acid receptor RXR-beta (Homo sapiens) (UniProt P28702)
# Sequence (whole entry): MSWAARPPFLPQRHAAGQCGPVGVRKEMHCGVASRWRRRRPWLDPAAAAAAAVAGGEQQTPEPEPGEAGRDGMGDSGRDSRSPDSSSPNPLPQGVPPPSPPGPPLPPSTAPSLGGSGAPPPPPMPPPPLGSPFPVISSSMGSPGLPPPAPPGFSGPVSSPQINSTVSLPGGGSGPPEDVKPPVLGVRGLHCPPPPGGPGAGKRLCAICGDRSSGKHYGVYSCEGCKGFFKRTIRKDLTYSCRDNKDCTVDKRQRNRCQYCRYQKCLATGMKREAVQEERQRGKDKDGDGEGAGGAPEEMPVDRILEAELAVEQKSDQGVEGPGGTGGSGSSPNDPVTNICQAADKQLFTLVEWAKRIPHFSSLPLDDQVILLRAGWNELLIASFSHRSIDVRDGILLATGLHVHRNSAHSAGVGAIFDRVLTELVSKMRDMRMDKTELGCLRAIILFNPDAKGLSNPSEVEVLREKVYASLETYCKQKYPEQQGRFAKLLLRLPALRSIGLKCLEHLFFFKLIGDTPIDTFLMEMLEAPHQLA
# ASSAY_TEXT: Agonist activity at yeast GAL4 fused human RXRbeta ligand binding domain expressed in HeLa cells assessed as receptor transactivation by luciferase reporter gene assay
# Type: cell-based
Activity calls are given as the source filed them. The rule behind the calls is not given here.
// allowed return values: active, inactive

Reference set (5 entries):
>>> answer_label("CC1(C)CC=C(c2ccccc2)c2ccc(C(=O)C(=O)Nc3ccc(C(=O)O)cc3F)cc21")
"active"
>>> answer_label("CC1(C)CC=C(c2ccccc2)c2ccc(C(O)C(=O)Nc3ccc(C(=O)O)cc3F)cc21 (racemic)")
"inactive"
>>> answer_label("CC1(C)CC=C(C#Cc2ccccc2)c2ccc(C(=O)C(=O)Nc3ccc(C(=O)O)cc3F)cc21")
"active"
>>> answer_label("Cc1ccc(C2=CCC(C)(C)c3cc(C(=O)C(=O)Nc4ccc(C(=O)O)cc4F)ccc32)cc1")
"active"
>>> answer_label("Cc1ccc(C2=CCC(C)(C)c3cc(C(O)C(=O)Nc4ccc(C(=O)O)cc4F)ccc32)cc1 (racemic)")
"inactive"

Assay outcome for CC1(C)CC=C(C#Cc2ccccc2)c2ccc(C(=O)/C=C/c3ccc(C(=O)O)cc3)cc21 : what was it?
inactive

###

# TEST_SYSTEM: Retinoic acid receptor gamma (Mus musculus)
# ASSAY_TEXT: Antagonist activity at yeast GAL4 fused mouse RARgamma ligand binding domain expressed in HeLa cells assessed as inhibition of TTNPB-induced receptor transactivation by luciferase reporter gene assay
# Format: cell-based
Activity calls are given as the source filed them. The rule behind the calls is not given here.
// allowed return values: active, inactive

>>> answer_label("Cc1ccc(C2=CCC(C)(C)c3cc(C(O)C(=O)Nc4ccc(C(=O)O)cc4F)ccc32)cc1 (racemic)")
"inactive"
>>> answer_label("Cc1ccc(C2=CCC(C)(C)c3cc(C(=O)C(=O)Nc4ccc(C(=O)O)cc4F)ccc32)cc1")
"active"
>>> answer_label("CC1(C)CC=C(c2ccccc2)c2ccc(C(O)C(=O)Nc3ccc(C(=O)O)cc3F)cc21 (racemic)")
"active"

Assay outcome for CC1(C)CC=C(c2ccccc2)c2ccc(C(=O)C(=O)Nc3ccc(C(=O)O)cc3F)cc21 : what was it?
active

Assay outcome for Cc1ccc(C2=CCC(C)(C)c3cc(C4=NOC(c5ccc(C(=O)O)cc5)C4)ccc32)cc1 (racemic) : what was it?
inactive

Assay outcome for CC1(C)CC=C(C#Cc2ccccc2)c2ccc(C(=O)C(=O)Nc3ccc(C(=O)O)cc3F)cc21 : what was it?
active

###

# TEST_SYSTEM: UniProtKB P18911
# Sequence (P18911 whole entry, the tested form may be a part): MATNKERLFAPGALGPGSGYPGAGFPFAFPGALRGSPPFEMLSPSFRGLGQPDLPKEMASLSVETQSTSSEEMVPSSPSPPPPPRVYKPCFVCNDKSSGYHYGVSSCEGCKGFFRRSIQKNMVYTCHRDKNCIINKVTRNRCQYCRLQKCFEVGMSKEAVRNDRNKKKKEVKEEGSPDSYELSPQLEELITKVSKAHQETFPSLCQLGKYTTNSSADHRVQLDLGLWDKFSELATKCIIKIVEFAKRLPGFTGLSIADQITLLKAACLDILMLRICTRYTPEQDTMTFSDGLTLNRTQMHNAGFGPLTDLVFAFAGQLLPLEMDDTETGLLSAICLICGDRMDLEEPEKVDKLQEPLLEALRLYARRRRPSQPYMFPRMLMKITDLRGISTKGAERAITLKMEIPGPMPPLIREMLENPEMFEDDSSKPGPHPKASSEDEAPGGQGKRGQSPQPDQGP
# ASSAY_TEXT: Agonist activity at yeast GAL4 fused mouse RARgamma ligand binding domain expressed in HeLa cells assessed as receptor transactivation by luciferase reporter gene assay
# Format: cell-based
Activity calls are given as the source filed them. The rule behind the calls is not given here.
// allowed return values: 1.0 = active, 0.0 = inactive

Reference set (4 entries):
>>> answer_label("CC1(C)CC=C(C#Cc2ccccc2)c2ccc(C(O)C(=O)Nc3ccc(C(=O)O)cc3F)cc21 (racemic)")
0.0
>>> answer_label("CC1(C)CC=C(c2ccccc2)c2ccc(C(O)C(=O)Nc3ccc(C(=O)O)cc3F)cc21 (racemic)")
1.0
>>> answer_label("CC1(C)CC=C(C#Cc2ccccc2)c2ccc(C(=O)/C=C/c3ccc(C(=O)O)cc3)cc21")
1.0
>>> answer_label("Cc1ccc(C2=CCC(C)(C)c3cc(C(O)/C=C/c4ccc(C(=O)O)cc4)ccc32)cc1 (racemic)")
0.0

Assay outcome for Cc1ccc(C2=CCC(C)(C)c3cc(C(O)C(=O)Nc4ccc(C(=O)O)cc4F)ccc32)cc1 (racemic) : what was it?
0.0

Assay outcome for CC1(C)CC=C(c2ccccc2)c2ccc(C(=O)/C=C/c3ccc(C(=O)O)cc3)cc21 : what was it?
1.0

###

# TEST_SYSTEM: Retinoic acid receptor beta (Mus musculus)
# Sequence (whole entry): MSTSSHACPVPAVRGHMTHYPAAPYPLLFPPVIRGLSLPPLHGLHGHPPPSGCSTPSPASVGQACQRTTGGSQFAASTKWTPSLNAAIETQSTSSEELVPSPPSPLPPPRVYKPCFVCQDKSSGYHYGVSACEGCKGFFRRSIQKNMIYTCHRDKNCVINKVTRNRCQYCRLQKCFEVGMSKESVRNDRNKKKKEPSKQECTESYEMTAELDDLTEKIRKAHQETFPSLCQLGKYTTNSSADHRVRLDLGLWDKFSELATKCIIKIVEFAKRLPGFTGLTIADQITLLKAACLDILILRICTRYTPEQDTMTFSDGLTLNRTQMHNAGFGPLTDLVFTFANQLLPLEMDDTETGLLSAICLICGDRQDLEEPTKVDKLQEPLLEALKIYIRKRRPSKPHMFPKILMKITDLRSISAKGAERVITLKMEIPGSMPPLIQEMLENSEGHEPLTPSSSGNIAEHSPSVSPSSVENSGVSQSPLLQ
# ASSAY_TEXT: Antagonist activity at yeast GAL4 fused mouse RARbeta ligand binding domain expressed in HeLa cells assessed as inhibition of TTNPB-induced receptor transactivation by luciferase reporter gene assay
# Type: cell-based
Activity calls are given as the source filed them. The rule behind the calls is not given here.
// allowed return values: y for active, n for inactive

>>> answer_label("Cc1ccc(C2=CCC(C)(C)c3cc(C(=O)C(=O)Nc4ccc(C(=O)O)cc4F)ccc32)cc1")
"y"
>>> answer_label("CC1(C)CC=C(c2ccccc2)c2ccc(C(O)C(=O)Nc3ccc(C(=O)O)cc3F)cc21 (racemic)")
"y"
>>> answer_label("CC1(C)CC=C(C#Cc2ccccc2)c2ccc(C(=O)C(=O)Nc3ccc(C(=O)O)cc3F)cc21")
"y"
>>> answer_label("CC1(C)CC=C(c2ccccc2)c2ccc(C(=O)C(=O)Nc3ccc(C(=O)O)cc3F)cc21")
"y"

Here is the next item to consider.
Assay outcome for Cc1ccc(C2=CCC(C)(C)c3cc(C(O)C(=O)Nc4ccc(C(=O)O)cc4F)ccc32)cc1 (racemic) : what was it?
n

###

# TEST_SYSTEM: Retinoic acid receptor alpha (Mus musculus)
# ASSAY_TEXT: Agonist activity at yeast GAL4 fused mouse RARalpha ligand binding domain expressed in HeLa cells assessed as receptor transactivation by luciferase reporter gene assay
# Format: cell-based
Activity calls are given as the source filed them. The calls are words filed in the database; no cut-off is given here.
// allowed return values: active, inactive

Reference set (2 entries):
>>> answer_label("CC1(C)CC=C(C#Cc2ccccc2)c2ccc(C(O)C(=O)Nc3ccc(C(=O)O)cc3F)cc21 (racemic)")
"inactive"
>>> answer_label("CC1(C)CC=C(c2ccccc2)c2ccc(C(O)C(=O)Nc3ccc(C(=O)O)cc3F)cc21 (racemic)")
"active"

Assay outcome for CC1(C)CC=C(c2ccccc2)c2ccc(C(=O)/C=C/c3ccc(C(=O)O)cc3)cc21 : what was it?
active

Assay outcome for CC1(C)CC=C(C#Cc2ccccc2)c2ccc(C(=O)/C=C/c3ccc(C(=O)O)cc3)cc21 : what was it?
active

Assay outcome for Cc1ccc(C2=CCC(C)(C)c3cc(C(O)C(=O)Nc4ccc(C(=O)O)cc4F)ccc32)cc1 (racemic) : what was it?
inactive

###

# TEST_SYSTEM: Retinoic acid receptor alpha (Mus musculus) (UniProt P11416)
# Sequence (whole entry): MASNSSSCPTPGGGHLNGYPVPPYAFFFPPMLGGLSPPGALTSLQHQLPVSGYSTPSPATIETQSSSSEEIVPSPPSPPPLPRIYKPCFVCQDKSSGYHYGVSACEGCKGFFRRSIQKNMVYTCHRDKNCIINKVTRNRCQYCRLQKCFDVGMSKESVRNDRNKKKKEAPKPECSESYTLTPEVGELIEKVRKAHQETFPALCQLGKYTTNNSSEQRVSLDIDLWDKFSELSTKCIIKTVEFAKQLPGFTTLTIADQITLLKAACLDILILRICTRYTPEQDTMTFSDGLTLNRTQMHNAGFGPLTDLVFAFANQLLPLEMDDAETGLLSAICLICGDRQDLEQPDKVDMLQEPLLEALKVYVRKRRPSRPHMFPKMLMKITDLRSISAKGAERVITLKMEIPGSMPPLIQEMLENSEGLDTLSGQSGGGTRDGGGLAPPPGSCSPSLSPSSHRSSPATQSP
# ASSAY_TEXT: Antagonist activity at yeast GAL4 fused mouse RARalpha ligand binding domain expressed in HeLa cells assessed as inhibition of TTNPB-induced receptor transactivation by luciferase reporter gene assay
# Format: cell-based
The source made the active and inactive calls. No cut-off for these calls is given here.
// allowed return values: class 1 for active, class 0 for inactive

Assay outcome for Cc1ccc(C2=CCC(C)(C)c3cc(C(=O)C(=O)Nc4ccc(C(=O)O)cc4F)ccc32)cc1 : what was it?
class 1

Assay outcome for CC1(C)CC=C(c2ccccc2)c2ccc(C(O)C(=O)Nc3ccc(C(=O)O)cc3F)cc21 (racemic) : what was it?
class 1

Assay outcome for Cc1ccc(C2=CCC(C)(C)c3cc(C(O)C(=O)Nc4ccc(C(=O)O)cc4F)ccc32)cc1 (racemic) : what was it?
class 0

Assay outcome for CC1(C)CC=C(C#Cc2ccccc2)c2ccc(C(=O)C(=O)Nc3ccc(C(=O)O)cc3F)cc21 : what was it?
class 1

Assay outcome for CC1(C)CC=C(c2ccccc2)c2ccc(C(=O)C(=O)Nc3ccc(C(=O)O)cc3F)cc21 : what was it?
class 1

Value source: ChEMBL document CHEMBL1782047
